biological target: HLA-DR4 (DRA-DRB1*0406 complex) (human (endogenous in KT13)); experiment: radioligand binding
Each item that follows carries a reported IC50.
// units = µM; emit number, no label

Sample records with IC50:
BINDER	VALUE MEASURED
AAYAALANAA	5
KLVEALYLVCGERGFFYTPKT [K-Ins beta p11-30 (…)]	14.5
KKTSICSLYQLE [KK-Ins alpha p8-17 (…)]	4.1
AAFAAMASAA	1.1
AALAAIASAA	8.8
KAAYAAVAVAA	12.2

Now turn to the next binder.
Any idea what its IC50 is? The binder is KSLYQLENYCN [K-Ins alpha p12-21 (…)]
12
